Test system: anti-M2 human monoclonal antibody Z3G1
Format: binding
What Signal (peptides that bind to Z3G1) was measured for each of the following?
One number for each entry.

Observe how each entry below is paired with its result.
input: Give the measured Signal (peptides that bind to Z3G1) for 447 (SLLTEVETPIRNEWGCRCNDS; epitope peptide) [compound 447]
output: 2348

input: // fetch Signal (peptides that bind to Z3G1) given entry 1375 (SLLTEVETPIRNEWCC; epitope peptide) [compound 1375]
output: 1813

input: Answer with reported Signal (peptides that bind to Z3G1) of 470 (MSLLTEVGCSLLTEC; epitope peptide) [compound 470]
output: 2349

Batch: Signal (peptides that bind to Z3G1) for all items listed.
1. 446 (SLLTEVETPIRNEWGCRCND; epitope peptide) [compound 446]
2. 363 (MSLLTECGCSLLTEV; epitope peptide) [compound 363]
3. 544 (SLLTEVETPIRNEWGCRCRDSSD; epitope peptide) [compound 544]
4. 1267 (MSILTEVETPIRNEWGCRCN; epitope peptide) [compound 1267]
5. 1384 (CLLCEVETPIRNEWG; epitope peptide) [compound 1384]
6. 1340 (MSCLTEVGMSLLCEV; epitope peptide) [compound 1340]
7. 430 (SLLTEVETPIRNEWGCRCNDSRD; epitope peptide) [compound 430]

output:
[2276, 1235, 2447, 2582, 2388, 2341, 2373]

* * *

Tested on: anti-M2 human monoclonal antibody Z3G1
Type: binding
For each record, write down the corresponding Signal (peptides that bind to Z3G1).
Numbers only.

Please review the following examples before continuing.
input: Tell me its Signal (peptides that bind to Z3G1) given 536 (MCLCTCVGCSLLTEV; epitope peptide) [compound 536] as the entry.
output: 2241

input: Determine from records and report Signal (peptides that bind to Z3G1) for 445 (SLLTEVETPIRNEWGCRCN; epitope peptide) [compound 445]
output: 2506

input: Hello, please tell me recorded Signal (peptides that bind to Z3G1) for this one: 460 (MSLLTECGMSLLCEV; epitope peptide) [compound 460]
output: 2373

input: Recall and state the measured Signal (peptides that bind to Z3G1) for 1273 (MSLMTEVETPIRNEWGCRCN; epitope peptide) [compound 1273] .
output: 2804

input: Supply reported Signal (peptides that bind to Z3G1) belonging to this substance: 632 (SLLTEVETPIRNEWGCRCVDSSD; epitope peptide) [compound 632]
output: 2366

Report Signal (peptides that bind to Z3G1) for each item below.
1. 1365 (SLLCEVETCIRNE; epitope peptide) [compound 1365]
2. 411 (SLLTEVETPIRNEWGCRCNDMSD; epitope peptide) [compound 411]

output:
1. 2305
2. 2405
